# Lookup of reported Emax values relative to U69593 keyed by entry
# TESTED_TARGET: KOR (Homo sapiens, UniProt P41145)
# Sequence (P41145 whole entry): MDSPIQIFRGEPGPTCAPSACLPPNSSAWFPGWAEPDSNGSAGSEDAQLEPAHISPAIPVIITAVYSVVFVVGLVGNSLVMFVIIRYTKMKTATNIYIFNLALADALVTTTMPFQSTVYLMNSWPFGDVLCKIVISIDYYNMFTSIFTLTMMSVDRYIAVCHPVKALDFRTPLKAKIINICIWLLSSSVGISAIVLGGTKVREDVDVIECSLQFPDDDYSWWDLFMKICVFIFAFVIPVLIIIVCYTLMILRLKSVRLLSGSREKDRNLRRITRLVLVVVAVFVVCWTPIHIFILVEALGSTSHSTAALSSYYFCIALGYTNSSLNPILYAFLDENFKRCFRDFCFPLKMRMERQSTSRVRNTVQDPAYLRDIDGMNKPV
# PROCEDURE_DETAILS: [35S]GTPγS binding functional agonist assay on membranes of CHO cells expressing hKOR (reference agonist U69593)
# Format: biochemical
# Set-up: expressed in transfected cells; host or cells: CHO cells, stably transfected; crude membrane fractions
# PROTOCOL_CONDITIONS: [35S]GTPγS data-fit top relative to reference agonist U69593
Number in %, nothing else.

{"MOLECULE": "O=C(Nc1ccc(Br)c(C(F)(F)F)c1)[C@@H]1CC=C[C@@H]2CCN(c3ccccc3)C(=O)[C@@H]21 (racemic)", "PROPERTY": "Emax values relative to U69593", "UNIT_DESCRIPTOR": "%", "RESULT": 95}

Moving on to the next molecule.
Query :: Please report the measured Emax values relative to U69593 for Cc1cc(NC(=O)[C@@H]2CC=C[C@@H]3CCN(Cc4ccccc4)C(=O)[C@@H]32)ccc1Cl (racemic)
Result :: 123

====

# Lookup of reported pKi keyed by entry
# TESTED_TARGET: DOR (Homo sapiens, UniProt P41143)
# Sequence (P41143 whole entry): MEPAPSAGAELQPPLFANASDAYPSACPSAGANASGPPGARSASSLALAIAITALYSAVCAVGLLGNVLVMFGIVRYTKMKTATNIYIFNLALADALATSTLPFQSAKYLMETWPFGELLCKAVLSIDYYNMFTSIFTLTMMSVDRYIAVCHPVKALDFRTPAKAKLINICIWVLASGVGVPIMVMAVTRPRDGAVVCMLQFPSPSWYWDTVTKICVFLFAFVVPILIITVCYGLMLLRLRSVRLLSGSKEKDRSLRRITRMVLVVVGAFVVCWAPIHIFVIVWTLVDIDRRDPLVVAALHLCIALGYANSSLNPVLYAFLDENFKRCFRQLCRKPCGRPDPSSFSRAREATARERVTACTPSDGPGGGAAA
# PROCEDURE_DETAILS: Opioid secondary binding, DOR (Table 4)
# PROTOCOL_CONDITIONS: Opioid secondary binding activity for Formula 10 analogs
Convention used: pKi is expressed as -log10 of the molar concentration.

{"COMPOUND": "CN(C(=O)[C@@H]1CC=C[C@@H]2CCN(C3CCCCC3)C(=O)[C@@H]21)c1ccccc1 (racemic)", "pKi": 5.53}
{"COMPOUND": "CC(c1ccccc1)N1CCC2C=CCC(C(=O)Nc3cccc(Cl)c3)C2C1=O (mixture of isomers)", "pKi": 5.92}
{"COMPOUND": "O=C(Nc1ccccc1)[C@@H]1CC=C[C@@H]2CCCN(C3CCCCC3)C(=O)[C@@H]21 (racemic)", "pKi": 5.05}
{"COMPOUND": "O=C(Nc1cccc(Cl)c1)[C@@H]1CC=C[C@@H]2CCCN(C3CCCCC3)C(=O)[C@@H]21 (racemic)", "pKi": 5.22}

Query :: Recall the reported pKi of O=C(Nc1cnccn1)[C@@H]1CC=C[C@@H]2CCN(CC3CCCCC3)C(=O)[C@@H]21 (racemic) on DOR (Homo sapiens, UniProt P41143) and write it down.
Result :: 5.78

Query :: Recall the reported pKi of O=C(Nc1cccc(Cl)c1)[C@@H]1CC=C[C@@H]2CCN(CC3CC3)C(=O)[C@@H]21 (racemic) on DOR (Homo sapiens, UniProt P41143) and write it down.
Result :: 5.93

Query :: Recall the reported pKi of O=C(Nc1ccc([N+](=O)[O-])c(C(F)(F)F)c1)[C@@H]1CC=C[C@@H]2CCN(Cc3ccccc3)C(=O)[C@@H]21 (racemic) on DOR (Homo sapiens, UniProt P41143) and write it down.
Result :: 7.39

Query :: Recall the reported pKi of O=C(Nc1ccc(Br)c(C(F)(F)F)c1)[C@@H]1CC=C[C@@H]2CCN(Cc3cccc(Br)c3)C(=O)[C@@H]21 (racemic) on DOR (Homo sapiens, UniProt P41143) and write it down.
Result :: 6.30

Query :: Recall the reported pKi of COc1ccc(CN2CC[C@H]3C=CC[C@@H](C(=O)N4CCN(c5ccccc5)CC4)[C@H]3C2=O)cc1OC (racemic) on DOR (Homo sapiens, UniProt P41143) and write it down.
Result :: 5.33

====

# TESTED_TARGET: MOR (Homo sapiens)
# Sequence (P35372 whole entry): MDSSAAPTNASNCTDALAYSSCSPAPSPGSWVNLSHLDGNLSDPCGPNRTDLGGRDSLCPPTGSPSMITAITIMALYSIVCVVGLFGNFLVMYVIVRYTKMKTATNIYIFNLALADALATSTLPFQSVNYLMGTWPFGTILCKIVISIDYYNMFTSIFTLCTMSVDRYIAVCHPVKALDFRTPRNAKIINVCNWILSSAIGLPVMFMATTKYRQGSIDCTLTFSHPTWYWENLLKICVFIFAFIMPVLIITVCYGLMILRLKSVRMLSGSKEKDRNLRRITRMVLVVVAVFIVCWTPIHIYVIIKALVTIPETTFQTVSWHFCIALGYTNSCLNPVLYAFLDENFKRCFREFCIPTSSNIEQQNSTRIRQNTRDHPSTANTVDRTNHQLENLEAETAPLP
# PROCEDURE_DETAILS: Opioid secondary binding, MOR (Tables 4, 5, 8)
# PROTOCOL_CONDITIONS: Opioid secondary binding activity for Formula 10 analogs; read-out: MOR, Ki
PROPERTY: pKi
Convention used: pKi is expressed as -log10 of the molar concentration.

Field: example entries. Status: answers known.
{"COMPOUND": "O=C(Nc1ccccc1)[C@H]1CC=C[C@H]2CCN(Cc3ccccc3)C(=O)[C@@H]12", "pKi": 5.78}
{"COMPOUND": "O=C(NCCc1ccccc1)[C@@H]1CC=C[C@@H]2CCN(Cc3ccc(Cl)c(Cl)c3)C(=O)[C@@H]21 (racemic)", "pKi": 5.28}
{"COMPOUND": "Cc1cc(NC(=O)[C@@H]2CC=C[C@@H]3CCN(CCc4ccccc4)C(=O)[C@@H]32)ccc1Cl (racemic)", "pKi": 5.78}
{"COMPOUND": "O=C(Nc1cc(C(F)(F)F)ccc1Cl)C1CC=CC2CCN(CCc3ccccc3)C(=O)C21 (racemic)", "pKi": 5.62}
{"COMPOUND": "O=C(Nc1ccc(F)c(F)c1)[C@@H]1CC=C[C@@H]2CCN(Cc3ccc(Cl)c(Cl)c3)C(=O)[C@@H]21 (racemic)", "pKi": 5.33}

Moving on to the next compound.
Query :: Please report the measured pKi for O=C(Nc1ccc(Cl)c(C(F)(F)F)c1)C1CCCC2CCN(Cc3ccccc3)C(=O)C21 (racemic)
Result :: 5.76

====

# TESTED_TARGET: UniProt P41145
# PROCEDURE_DETAILS: Opioid secondary binding, KOR (Tables 4, 5, 8, 9)
# PROTOCOL_CONDITIONS: Opioid secondary binding activity for Formula 10 analogs; read-out: KOR, Ki
PROPERTY: Ki (µM)
Number in µM, nothing else.

{"COMPOUND": "O=C(Nc1ccc(Cl)c(C(F)(F)F)c1)C1CCCC2CCN(Cc3ccccc3)C(=O)C21 (racemic)", "UNIT_DESCRIPTOR": "µM", "Ki": 0.051}
{"COMPOUND": "O=C(Nc1cccc(Cl)c1)[C@@H]1CC=C[C@@H]2CCN(Cc3ccc(Cl)cc3)C(=O)[C@@H]21 (racemic)", "UNIT_DESCRIPTOR": "µM", "Ki": 0.225}
{"COMPOUND": "O=C(OCc1ccccc1)C(Cc1ccccc1)NC(=O)C1CC=CC2CCN(Cc3ccc(Cl)cc3)C(=O)C21 (mixture of isomers)", "UNIT_DESCRIPTOR": "µM", "Ki": 1.16}
{"COMPOUND": "O=C(O)C(Cc1ccccc1)NC(=O)C1CC=CC2CCN(Cc3ccccc3)C(=O)C21 (mixture of isomers)", "UNIT_DESCRIPTOR": "µM", "Ki": 3.38}
{"COMPOUND": "CC(C)N1CCC2C=CCC(C(=O)Nc3ccc(Cl)c(C(F)(F)F)c3)C2C1=O (racemic)", "UNIT_DESCRIPTOR": "µM", "Ki": 0.261}

Query :: Please report the measured Ki for COc1ccc(NC(=O)[C@@H]2CC=C[C@@H]3CCN(Cc4ccccc4)C(=O)[C@@H]32)cc1 (racemic)
Result :: 0.883

Query :: Please report the measured Ki for O=C(NCCc1ccccc1)[C@@H]1CC=C[C@@H]2CCN(Cc3ccc(Cl)c(Cl)c3)C(=O)[C@@H]21 (racemic)
Result :: 4.8

====

# TESTED_TARGET: KOR (Homo sapiens, UniProt P41145)
# PROCEDURE_DETAILS: [35S]GTPγS binding functional agonist assay on membranes of CHO cells expressing hKOR (reference agonist U69593)
# Assay type: biochemical
# Parameters: expressed in transfected cells; host or cells: CHO cells, stably transfected; crude membrane fractions
# PROTOCOL_CONDITIONS: test compound at 10 micromolar; N=4; reference agonist = 100%; CHO-cell line expressing hKOR
PROPERTY: KOR agonist (average percent efficacy relative to cognate agonist) (%)
Number in %, nothing else.

{"COMPOUND": "O=C(NC1CCCCC1)[C@@H]1CC=C[C@@H]2CCN(C3CCCCC3)C(=O)[C@@H]21 (racemic)", "UNIT_DESCRIPTOR": "%", "RESULT": 8}

Query :: Please report the measured KOR agonist (average percent efficacy relative to cognate agonist) for CCCCN1CC[C@H]2C=CC[C@@H](C(=O)Nc3ccc(Cl)cc3Cl)[C@H]2C1=O (racemic)
Result :: 72.9

Query :: Please report the measured KOR agonist (average percent efficacy relative to cognate agonist) for O=C([C@@H]1CC=C[C@@H]2CCN(C3CCCCC3)C(=O)[C@@H]21)N1CCOCC1 (racemic)
Result :: 42.7

Query :: Please report the measured KOR agonist (average percent efficacy relative to cognate agonist) for O=C(Nc1ccc(Cl)c(C(F)(F)F)c1)[C@@H]1CC=C[C@@H]2CCN(C3CCCCC3)C(=O)[C@@H]21 (racemic)
Result :: 93.2

Query :: Please report the measured KOR agonist (average percent efficacy relative to cognate agonist) for COc1ccc(NC(=O)[C@@H]2CC=C[C@@H]3CCN(Cc4ccc(Cl)c(Cl)c4)C(=O)[C@@H]32)cc1 (racemic)
Result :: 17.3

Query :: Please report the measured KOR agonist (average percent efficacy relative to cognate agonist) for COc1ccc(NC(=O)[C@@H]2CC=C[C@@H]3CCN(C4CC4)C(=O)[C@@H]32)cc1 (racemic)
Result :: 1

Query :: Please report the measured KOR agonist (average percent efficacy relative to cognate agonist) for COc1ccc(CNC(=O)[C@@H]2CC=C[C@@H]3CCN(Cc4ccccc4)C(=O)[C@@H]32)cc1 (racemic)
Result :: 18.8

Query :: Please report the measured KOR agonist (average percent efficacy relative to cognate agonist) for CCCCN1CC[C@H]2C=CC[C@@H](C(=O)Nc3ccc(Cl)c(C(F)(F)F)c3)[C@H]2C1=O (racemic)
Result :: 118.7

Query :: Please report the measured KOR agonist (average percent efficacy relative to cognate agonist) for O=C(NC1CCCCC1)[C@@H]1CC=C[C@@H]2CCN(Cc3ccccc3)C(=O)[C@@H]21 (racemic)
Result :: 94.2

Query :: Please report the measured KOR agonist (average percent efficacy relative to cognate agonist) for O=C(Nc1ccccc1)[C@@H]1CC=C[C@@H]2CCN(Cc3ccccc3)C(=O)[C@@H]21 (racemic)
Result :: 136.6

Query :: Please report the measured KOR agonist (average percent efficacy relative to cognate agonist) for O=C(NCCc1ccccc1)[C@@H]1CC=C[C@@H]2CCN(C3CC3)C(=O)[C@@H]21 (racemic)
Result :: 6.6

Query :: Please report the measured KOR agonist (average percent efficacy relative to cognate agonist) for CCCCN1CC[C@H]2C=CC[C@@H](C(=O)N3CCOCC3)[C@H]2C1=O (racemic)
Result :: 8.3

Query :: Please report the measured KOR agonist (average percent efficacy relative to cognate agonist) for O=C(Nc1ccc(Cl)cc1Cl)[C@@H]1CC=C[C@@H]2CCN(C3CCCCC3)C(=O)[C@@H]21 (racemic)
Result :: 67.9

Query :: Please report the measured KOR agonist (average percent efficacy relative to cognate agonist) for COc1ccc(CN2CC[C@H]3C=CC[C@@H](C(=O)Nc4ccccc4)[C@H]3C2=O)cc1OC (racemic)
Result :: 5.4
